- Read-out: Cytochrome P450 4A22 (Homo sapiens) (UniProt Q5TCH4)
- method-notes: LTEA_HepaRG_CYP4A22: Life Technologies and Expression Analysis (LTEA) Assay for Cytochrome P450 4A22 (CYP4A22) using HepaRG (AID 2283495)
- condition-parameters: mRNA level, 48 h; actives raise or lower the signal
The source made the active and inactive calls. The calls were made as follows: active = hit-call score of the fitted dose curve at least 0.9, where 1 is the maximum; inactive = score below 0.9.
property-name: AC50

These solved cases illustrate the format of a correct answer.
1. O=C(O)CC(O)(CC(=O)O)C(=O)O = inactive
2. CC(=O)OC1CC(C)OC(C)O1 (stereo not drawn) = inactive
3. CCCCCCCCCCCCCCCCO = inactive
4. O=C(O)c1cccnc1 = inactive
5. COc1ccc(C(=O)Nc2nc3ccccc3c(NCc3ccccc3)c2C#N)cc1 = 27.1 µM (active)

Data point: C=CCc1ccc(OC)c(OC)c1 ; AC50 = inactive
